# assay.target: CSK protein (Homo sapiens (Human))
# Sequence (P41240 whole entry): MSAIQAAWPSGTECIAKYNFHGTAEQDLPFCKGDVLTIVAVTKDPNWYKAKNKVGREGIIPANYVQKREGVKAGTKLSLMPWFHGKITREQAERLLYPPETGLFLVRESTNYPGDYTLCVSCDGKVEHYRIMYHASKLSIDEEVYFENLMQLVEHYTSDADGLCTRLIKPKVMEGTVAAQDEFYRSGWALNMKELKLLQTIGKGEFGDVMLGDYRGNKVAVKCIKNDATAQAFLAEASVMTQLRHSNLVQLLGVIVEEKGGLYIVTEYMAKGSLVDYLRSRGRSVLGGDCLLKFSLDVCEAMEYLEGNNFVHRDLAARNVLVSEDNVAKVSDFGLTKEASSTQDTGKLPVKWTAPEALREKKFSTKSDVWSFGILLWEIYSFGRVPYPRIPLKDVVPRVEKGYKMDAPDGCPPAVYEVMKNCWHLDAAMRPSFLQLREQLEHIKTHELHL
# test.protocol: CSK Inhibition Assay
# Assay type: biochemical
recorded.metric: IC50 (µM)

smiles_entry=O=S(=O)(Nc1cccc(-c2nc(-c3cncc(F)c3)sc2-c2ccnc(NCCO)n2)c1F)c1c(F)ccc(Cl)c1F assay_target="CSK protein (Homo sapiens (Human))" numeric_value=0.0054
smiles_entry=CCn1cc(-c2nc(-c3cccc(NS(=O)(=O)c4c(F)cccc4F)c3F)c(-c3ccnc(N)n3)s2)cn1 assay_target="CSK protein (Homo sapiens (Human))" numeric_value=0.0301
smiles_entry=CCOc1ncc(-c2nc(-c3cccc(NS(=O)(=O)c4c(F)cccc4F)c3F)c(-c3ccnc(N)n3)s2)cn1 assay_target="CSK protein (Homo sapiens (Human))" numeric_value=0.305
smiles_entry=Nc1nccc(-c2sc(N3CCCC3=O)nc2-c2cccc(NS(=O)(=O)c3c(F)cccc3F)c2F)n1 assay_target="CSK protein (Homo sapiens (Human))" numeric_value=0.0303
smiles_entry=Cc1ccc(Cl)c(S(=O)(=O)Nc2cccc(-c3nc(-c4ccc(F)cn4)sc3-c3ccnc(NCCO)n3)c2F)c1Cl assay_target="CSK protein (Homo sapiens (Human))" numeric_value=0.108
smiles_entry=Nc1nccc(-c2sc(N3CCCCC3)nc2-c2cccc(NS(=O)(=O)c3c(F)cccc3F)c2F)n1 assay_target="CSK protein (Homo sapiens (Human))" numeric_value=0.0164
smiles_entry=Nc1nccc(-c2sc(C3CCNCC3)nc2-c2cccc(NS(=O)(=O)c3c(F)cccc3F)c2F)n1 assay_target="CSK protein (Homo sapiens (Human))" numeric_value=0.634
smiles_entry=COc1ccc(Nc2nccc(-c3sc(-c4ccc(F)cn4)nc3-c3cccc(NS(=O)(=O)c4c(F)cccc4F)c3F)n2)cn1 assay_target="CSK protein (Homo sapiens (Human))" numeric_value=0.0029
